Data origin: patent US6596719B1

- testedOn: human recombinant ETB receptors (Homo sapiens, UniProt P24530)
- Construct: expressed in transfected cells; host or cells: CHO cells (microsomal membranes)
- Sequence (P24530 27-442): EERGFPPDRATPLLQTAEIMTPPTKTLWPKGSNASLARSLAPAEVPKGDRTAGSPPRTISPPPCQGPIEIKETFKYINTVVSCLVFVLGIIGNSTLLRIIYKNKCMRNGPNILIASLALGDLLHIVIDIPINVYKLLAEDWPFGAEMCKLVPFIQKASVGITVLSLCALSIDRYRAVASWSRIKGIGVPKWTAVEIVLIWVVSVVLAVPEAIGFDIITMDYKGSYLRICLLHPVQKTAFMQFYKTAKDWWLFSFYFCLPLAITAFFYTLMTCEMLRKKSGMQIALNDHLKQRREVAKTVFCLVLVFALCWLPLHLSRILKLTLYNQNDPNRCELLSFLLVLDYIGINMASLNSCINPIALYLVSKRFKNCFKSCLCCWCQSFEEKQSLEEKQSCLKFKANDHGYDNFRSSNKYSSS
- assayText: Inhibition of endothelin binding to membranes from CHO cells carrying human ET receptors (ETB)
- conditionInfo: membranes of CHO cells expressing human recombinant ETB receptors, 8 pM [125I]ET-1, 2 h at 20° C.
Recorded IC50 for the following compounds
Value expressed in µM; do not type the unit.

COc1ccccc1Oc1c(NS(=O)(=O)c2ccc(C)cn2)nc(N2CCOCC2)nc1OCCNS(=O)(=O)c1cccs1 [Example 58]    0.447

What value of measured IC50 is listed for CCS(=O)(=O)NCCCOc1nc(C2CC2)nc(NS(=O)(=O)c2ccc(C(C)C)cn2)c1Oc1ccccc1OC [Example 91] ?
0.103

What value of measured IC50 is listed for COc1ccccc1Oc1c(NS(=O)(=O)c2ccc(C(C)(C)C)cc2)nc(-c2ncccn2)nc1OCCNS(=O)(=O)c1ccc(C)cc1 [Example 6] ?
0.42

What value of measured IC50 is listed for CCS(=O)(=O)NCCOc1nc(-c2ncccn2)nc(NS(=O)(=O)c2ccc(C(C)(C)C)cc2)c1Oc1ccccc1OC [Example 8] ?
0.13

What value of measured IC50 is listed for CCCS(=O)(=O)NCCCOc1nc(C2CC2)nc(NS(=O)(=O)c2ccc(C(C)C)cn2)c1Oc1ccccc1OC [Example 92] ?
0.015

What value of measured IC50 is listed for COc1ccccc1Oc1c(NS(=O)(=O)c2ccc(C(C)C)cn2)nc(N2CCOCC2)nc1OCCNS(=O)(=O)c1cccs1 [Example 42] ?
0.099

What value of measured IC50 is listed for CCS(=O)(=O)NCCOc1nc(-c2ccncc2)nc(NS(=O)(=O)c2ccc(C)cn2)c1Oc1ccccc1OC [Example 77] ?
5.4

What value of measured IC50 is listed for CCCS(=O)(=O)NCCOc1nc(N2CCOCC2)nc(NS(=O)(=O)c2ccc(C(C)C)cn2)c1Oc1ccccc1OC [Example 46] ?
0.103

What value of measured IC50 is listed for COc1ccccc1Oc1c(NS(=O)(=O)c2ccc(C(C)C)cn2)nc(C2CC2)nc1OCCNS(=O)(=O)c1ccc(C)cc1 [Example 39] ?
0.081

What value of measured IC50 is listed for CCS(=O)(=O)NCCCOc1nc(C2CC2)nc(NS(=O)(=O)c2ccc(C(C)(C)C)cc2)c1Oc1ccccc1OC [Example 87] ?
0.0331

What value of measured IC50 is listed for CCS(=O)(=O)NCCOc1nc(C2CC2)nc(NS(=O)(=O)c2ccc(C(C)(C)C)cc2)c1Oc1ccccc1OC [Example 44] ?
0.323

What value of measured IC50 is listed for COc1ccccc1Oc1c(NS(=O)(=O)c2ccc(C(C)(C)C)cc2)nc(C2CC2)nc1OCCNS(=O)(=O)c1ccc(C)cc1 [Example 41] ?
0.299
